In what follows, each item is paired with its pKi for Induced myeloid leukemia cell differentiation protein Mcl-1 (Homo sapiens, UniProt Q07820).
pKi: −log10 of the molar value.
QUANTITY_MEASURED: pKi

STRUCTURE_SMILES_STRING: Cc1cc(OCCCc2c(C(=O)NS(=O)(=O)c3ccnc(NCCc4ccccc4)c3)[nH]c3c(-c4c(C)nn(C)c4C)c(Cl)ccc23)cc(C)c1Cl
pKi: 8.92

STRUCTURE_SMILES_STRING: Cc1cc(OCCCc2c(C(=O)NS(=O)(=O)c3ccnc(N(C)CCc4ccccc4)c3)[nH]c3c(-c4c(C)nn(C)c4C)c(Cl)ccc23)cc(C)c1Cl
pKi: 8.60

a. Cc1cc(OCCCc2c(C(=O)NS(=O)(=O)c3ccc(C(=O)NCc4ccccc4)o3)[nH]c3c(-c4c(C)nn(C)c4C)c(Cl)ccc23)cc(C)c1Cl
b. Cc1cc(OCCCc2c(C(=O)NS(=O)(=O)c3ccnc(NC4Cc5ccccc5C4)c3)[nH]c3c(-c4c(C)nn(C)c4C)c(Cl)ccc23)cc(C)c1Cl
c. Cc1cc(OCCCc2c(C(=O)NS(=O)(=O)c3ccccc3)[nH]c3c(-c4cccnc4C)c(Cl)ccc23)cc(C)c1Cl
d. CC(=O)NCc1cccc(S(=O)(=O)NC(=O)c2[nH]c3c(-c4c(C)nn(C)c4C)c(Cl)ccc3c2CCCOc2cc(C)c(Cl)c(C)c2)c1
Problem: Order these by pKi, descending, and give the full ranking. Order the labels as requested and give them as your answer.
Solution: b, a, d, c

====

- MEASUREMENT_TARGET: Induced myeloid leukemia cell differentiation protein Mcl-1 (Homo sapiens, UniProt Q07820)
- Sequence (Q07820 whole entry): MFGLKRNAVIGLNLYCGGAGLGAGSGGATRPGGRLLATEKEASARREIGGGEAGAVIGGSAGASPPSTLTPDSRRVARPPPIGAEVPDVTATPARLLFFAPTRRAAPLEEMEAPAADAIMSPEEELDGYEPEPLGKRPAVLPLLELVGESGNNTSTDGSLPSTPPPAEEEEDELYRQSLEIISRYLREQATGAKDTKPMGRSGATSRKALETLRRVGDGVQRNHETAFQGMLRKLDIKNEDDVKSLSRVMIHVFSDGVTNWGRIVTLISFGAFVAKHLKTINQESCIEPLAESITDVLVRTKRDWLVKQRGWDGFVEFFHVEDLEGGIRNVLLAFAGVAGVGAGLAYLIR
QUANTITY_MEASURED: Ki (nM)

Here's what some known entries look like.
STRUCTURE_SMILES_STRING: Cc1cc(OCCCc2c(C(=O)NS(=O)(=O)CCNC(=O)c3cc4ccccc4o3)[nH]c3ccccc23)cc(C)c1Cl
Ki, nM: 311
--
STRUCTURE_SMILES_STRING: Cc1cc(OCCCc2c(C(=O)NS(=O)(=O)CCNC(=O)c3cccc(F)c3)[nH]c3ccccc23)cc(C)c1Cl
Ki, nM: 100
--
STRUCTURE_SMILES_STRING: Cc1cc(OCCCc2c(C(=O)NS(=O)(=O)CCNC(=O)c3cccn3C)[nH]c3ccccc23)cc(C)c1Cl
Ki, nM: 90
--
STRUCTURE_SMILES_STRING: Cc1cc(OCCCc2c(C(=O)NS(=O)(=O)CCNC(=O)CC3CCCCC3)[nH]c3ccccc23)cc(C)c1Cl
Ki, nM: 1100
--
STRUCTURE_SMILES_STRING: Cc1cc(OCCCc2c(C(=O)NS(=O)(=O)c3ccco3)[nH]c3cc(Cl)ccc23)cc(C)c1Cl
Ki, nM: 116

P. Cc1cc(OCCCc2c(C(=O)NS(=O)(=O)CCNC(=O)c3ccc4[nH]ccc4c3)[nH]c3ccccc23)cc(C)c1Cl
Q. Cc1cc(OCCCc2c(C(=O)NS(C)(=O)=O)[nH]c3ccccc23)cc(C)c1Cl
Problem: Between P and Q , whose recorded Ki is greater? Answer = label.
Solution: Q

a. Cc1cc(OCCCc2c(C(=O)NS(=O)(=O)CCNC(=O)c3cc(-c4ccccc4O)n[nH]3)[nH]c3cc(Cl)ccc23)cc(C)c1Cl
b. Cc1cc(OCCCc2c(C(=O)NS(=O)(=O)CCNC(=O)[C@@H]3Cc4ccccc4N3)[nH]c3ccccc23)cc(C)c1Cl
c. Cc1cc(OCCCc2c(C(=O)NS(=O)(=O)CCCNC3CCCCC3)[nH]c3ccccc23)cc(C)c1Cl
Problem: Order these by Ki, descending, and give the full ranking. Order the labels as requested and give them as your answer.
Solution: c, a, b
(c: 1020 nM, a: 308 nM, b: 193 nM)

A. Cc1cc(OCCCc2c(C(=O)NS(=O)(=O)CCNC(=O)c3ccccc3)[nH]c3ccccc23)cc(C)c1Cl
B. Cc1cc(OCCCc2c(C(=O)NS(=O)(=O)c3ccccc3)[nH]c3c(-c4cccnc4)cccc23)cc(C)c1Cl
Problem: Between A and B , whose recorded Ki is greater? Answer = label.
Solution: A

====

- MEASUREMENT_TARGET: Induced myeloid leukemia cell differentiation protein Mcl-1 (Homo sapiens)
pKi: −log10 of the molar value.
QUANTITY_MEASURED: pKi

P. Cc1cc(OCCCc2c(C(=O)NS(=O)(=O)CCNC(=O)[C@H]3Cc4ccccc4N3)[nH]c3cc(Cl)ccc23)cc(C)c1Cl
Q. Cc1cc(OCCCc2c(C(=O)NS(=O)(=O)CCNC(=O)c3cccn3Cc3ccccc3)[nH]c3ccccc23)cc(C)c1Cl
R. Cc1cc(OCCCc2c(C(=O)NS(=O)(=O)CCNC(=O)C3CCCCC3)[nH]c3cc(Cl)ccc23)cc(C)c1Cl
S. Cc1cc(OCCCc2c(C(=O)NS(=O)(=O)c3ccncc3)[nH]c3ccccc23)cc(C)c1Cl
T. CC(=O)NCCS(=O)(=O)NC(=O)c1[nH]c2ccccc2c1CCCOc1cc(C)c(Cl)c(C)c1
Problem: Descending sort on pKi required. Order the labels as requested and give them as your answer.
Solution: P, R, Q, S, T
(P: 7.55, R: 7.26, Q: 6.83, S: 6.47, T: 6.18)

====

- MEASUREMENT_TARGET: Induced myeloid leukemia cell differentiation protein Mcl-1 (Homo sapiens, UniProt Q07820)
QUANTITY_MEASURED: Kd (µM)
I only need the number, in µM, no unit after it.

Problem: // lookup Kd | system=Induced myeloid leukemia cell differentiation protein Mcl-1 (Homo sapiens, UniProt Q07820) | key= Oc1ccccc1-c1cc(C(F)(F)C(F)(F)F)[nH]n1
Solution: 1500

====

- MEASUREMENT_TARGET: Induced myeloid leukemia cell differentiation protein Mcl-1 (Homo sapiens, UniProt Q07820)
QUANTITY_MEASURED: Ki (nM)

Here's what some known entries look like.
STRUCTURE_SMILES_STRING: Cc1cc(OCCCc2c(C(=O)NS(=O)(=O)c3cccc(CNC(=O)c4cccc(C(F)(F)F)c4)c3)[nH]c3c(-c4c(C)nn(C)c4C)c(Cl)ccc23)cc(C)c1Cl
Ki [nM]: 7
//
STRUCTURE_SMILES_STRING: Cc1cc(OCCCc2c(C(=O)NS(=O)(=O)c3cccc(CNC(=O)CC(C)C)c3)[nH]c3c(-c4c(C)nn(C)c4C)c(Cl)ccc23)cc(C)c1Cl
Ki [nM]: 5.6
//
STRUCTURE_SMILES_STRING: Cc1cc(OCCCc2c(C(=O)NS(=O)(=O)c3cccc(CNC(=O)c4ccccc4C(F)(F)F)c3)[nH]c3c(-c4c(C)nn(C)c4C)c(Cl)ccc23)cc(C)c1Cl
Ki [nM]: 5

P. Cc1cc(OCCCc2c(C(=O)NS(=O)(=O)c3ccccc3)[nH]c3c(-c4c(C)nn(C)c4C)c(Cl)ccc23)cc(C)c1Cl
Q. Cc1cc(OCCCc2c(C(=O)NS(=O)(=O)c3ccc(C(=O)O)o3)[nH]c3c(-c4c(C)nn(C)c4C)c(Cl)ccc23)cc(C)c1Cl
R. Cc1cc(OCCCc2c(C(=O)NS(=O)(=O)c3cccc(CNC(=O)c4cccn4C)c3)[nH]c3c(-c4c(C)nn(C)c4C)c(Cl)ccc23)cc(C)c1Cl
S. Cc1cc(OCCCc2c(C(=O)NS(=O)(=O)c3ccnc(NCCC(C)C)c3)[nH]c3c(-c4c(C)nn(C)c4C)c(Cl)ccc23)cc(C)c1Cl
Problem: Order these by Ki, descending, and give the full ranking. Order the labels as requested and give them as your answer.
Solution: P, R, S, Q
(P: 17 nM, R: 10 nM, S: 5.6 nM, Q: 0.78 nM)

====

In what follows, each item is paired with its pKi for Induced myeloid leukemia cell differentiation protein Mcl-1 (Homo sapiens).
pKi: −log10 of the molar value.
QUANTITY_MEASURED: pKi

1. Cc1cc(OCCCc2c(C(=O)NS(=O)(=O)c3ccc(C(=O)NCc4ccncc4)o3)[nH]c3c(-c4c(C)nn(C)c4C)c(Cl)ccc23)cc(C)c1Cl
2. Cc1cc(OCCCc2c(C(=O)NS(=O)(=O)c3cccc(CNC(=O)C(C)C)c3)[nH]c3c(-c4c(C)nn(C)c4C)c(Cl)ccc23)cc(C)c1Cl
3. Cc1cc(OCCCc2c(C(=O)NS(=O)(=O)c3cccc(CNC(=O)c4ccoc4)c3)[nH]c3c(-c4c(C)nn(C)c4C)c(Cl)ccc23)cc(C)c1Cl
Problem: Provide the items ranked by increasing pKi. Order the labels as requested and give them as your answer.
Solution: 2, 1, 3
(2: 7.80, 1: 8.07, 3: 8.54)

====

- MEASUREMENT_TARGET: Induced myeloid leukemia cell differentiation protein Mcl-1 (Homo sapiens, UniProt Q07820)
pKi: −log10 of the molar value.
QUANTITY_MEASURED: pKi

Here's what some known entries look like.
STRUCTURE_SMILES_STRING: Cc1cc(OCCCc2c(C(=O)NS(C)(=O)=O)[nH]c3cc(Cl)ccc23)cc(C)c1Cl
pKi: 6.68
//
STRUCTURE_SMILES_STRING: Cc1cc(OCCCc2c(C(=O)NS(=O)(=O)CCNC(=O)c3ccc(C(F)(F)F)cc3)[nH]c3cc(Cl)ccc23)cc(C)c1Cl
pKi: 6.92
//
STRUCTURE_SMILES_STRING: Cc1cc(OCCCc2c(C(=O)NS(=O)(=O)CCNC(=O)Cc3cn(C)c4ccccc34)[nH]c3ccccc23)cc(C)c1Cl
pKi: 6.53
//
STRUCTURE_SMILES_STRING: Cc1cc(OCCCc2c(C(=O)NS(=O)(=O)CCNC(=O)c3ccccc3C(F)(F)F)[nH]c3cc(Cl)ccc23)cc(C)c1Cl
pKi: 7.74
//
STRUCTURE_SMILES_STRING: Cc1cc(OCCCc2c(C(=O)NS(=O)(=O)CCNC(=O)c3ccc[nH]3)[nH]c3cc(Cl)ccc23)cc(C)c1Cl
pKi: 6.11
//
STRUCTURE_SMILES_STRING: Cc1cc(OCCCc2c(C(=O)NS(=O)(=O)CCNC(=O)C(C)C)[nH]c3cc(Cl)ccc23)cc(C)c1Cl
pKi: 7.18

I. Cc1cc(OCCCc2c(C(=O)NS(=O)(=O)c3ccccc3)[nH]c3c(-c4cccnc4C)cccc23)cc(C)c1Cl
II. CS(=O)(=O)NC(=O)c1[nH]c2cc(Cl)ccc2c1CCCOc1cccc2ccccc12
Problem: Between I and II , whose recorded pKi is greater? Answer = label.
Solution: I
(I: 7.85, II: 6.64)
